Where these numbers come from: PubChem BioAssay

# METHOD: viability loss with induced miR-34 in A549 – imaging, A549 dox-inducible miR-34, nuclei and caspase counts, primary screen (AID 1347080); also: test concentration not given here
# EXPERIMENTAL CONDITIONS: A549 miR-34 inducible, Hoechst nuclei count, 48 h; measured here: total cells without miR-34 induction
hey, just use Met if measured cell count is less than 6000, otherwise Not met

Solved entries (count: 9):
MOLECULE SMILES	LABEL CLASS
CCCCC[C@](C)(O)/C=C/[C@@H]1[C@@H](C/C=C\CCCC(=O)O)[C@@H](O)C[C@H]1O	Met
CCOC(=O)C1=C[C@@H](OC(CC)CC)[C@H](NC(C)=O)[C@@H](N)C1	Not met
CCCCCCCCCCCCCCP(=O)(O)O	Met
CCn1c(=O)[nH]c2ccccc21	Not met
CCCCC[C@@](C)(O)/C=C/[C@H]1C(=O)C[C@H](O)[C@@H]1C/C=C\CCCC(=O)O	Met
COCCOc1ccc2c(c1)ncn2-c1ccc2cccc(N3CCC(N)CC3)c2n1	Met
COc1cc(N2CCC(N)CC2)ccc1Nc1ncc(Cl)c(-c2c[nH]c3ccccc23)n1	Met
COc1nc(C)cnc1NS(=O)(=O)c1cccnc1-c1ccc(-c2nnco2)cc1	Not met
N=C(N)S/C=C\C(=O)O	Not met

Could you now look at the following compound, please?
Request: Regarding "CC(C)OC(=O)CCC/C=C\C[C@@H]1[C@@H](/C=C/[C@H](O)C2Cc3ccccc3C2)[C@@H](F)C[C@@H]1O" , kindly confirm whether its cell count is beneath 6000.
Result: Met
